# ASSAY_INFO: Biodistribution in BALB/c nu/nu mice bearing PC-3 xenografts
# Type: in vivo
# RUN_PARAMETERS: female, BALB/c nu/nu, mouse, carcass, iv, total radioactivity; Blockade (co-injection of NOTA-PEG2-RM26), 2 h; read-out: Radionuclide quantity, Carcass
# Method: Female BALB/c nu/nu mice of 18–22 g weight were used in the study. All procedures with animals were conducted in accordance with the EU Directive 2010/63/EU for animal experiments and Swedish national legislation concerning the protection of laboratory animals. […] For tumor inoculation, 8·10^6 PC-3 cells in 100 µL PBS were injected subcutaneously into the right hind leg of mice. Mouse weight and tumor size were measured every 2–3 days, and tumor volume was estimated by ellipsoid approximation. […]
Starred links: 1 amine or outer side, 2 acyl side, 3 side chain; linkers in the order of their positions; H or OH if unused. Non-standard residues stand in square brackets, D forms with d. Residues, ends and D or L forms follow the SMILES beside them. *: point of attachment. NOTA = O=C(O)CN1CCN(CC(=O)O)CCN(CC(=O)*)CC1; Sta = CC(C)C[C@H](N)[C@@H](O)CC(=O)O; X2 = O=C(COc1cccc(CN[*:1])c1)[*:2]; X1 = O=C(Cc1ccccc1CCN[*:1])[*:2]; X3 = O=C(COc1ccccc1CN[*:1])[*:2]
ENDPOINT_LABEL: tissue uptake dose at 2 h (%ID)
Report only the number, with the unit %ID understood.

Using the record for CC(=O)N[C@@H](CCCCNC(=O)CN1CCN(CC(=O)O)CCN(CC(=O)O)CC1)C(=O)NCc1ccccc1OCC(=O)N[C@H](Cc1ccccc1)C(=O)N[C@@H](CCC(N)=O)C(=O)N[C@@H](Cc1c[nH]c2ccccc12)C(=O)N[C@@H](C)C(=O)N[C@H](C(=O)NCC(=O)N[C@@H](Cc1c[nH]cn1)C(=O)N[C@@H](CC(C)C)[C@@H](O)CC(=O)N[C@@H](CC(C)C)C(N)=O)C(C)C [[^68Ga]Ga-NOTA-oMA-RM26, metal not drawn] (Ac-K(NOTA)[X3][dF]QWAVGH[Sta]L-NH2) , state its measured tissue uptake dose at 2 h.
5.9

Name the recorded tissue uptake dose at 2 h of the item CC(=O)N[C@@H](CCCCNC(=O)CN1CCN(CC(=O)O)CCN(CC(=O)O)CC1)C(=O)NCc1cccc(OCC(=O)N[C@H](Cc2ccccc2)C(=O)N[C@@H](CCC(N)=O)C(=O)N[C@@H](Cc2c[nH]c3ccccc23)C(=O)N[C@@H](C)C(=O)N[C@H](C(=O)NCC(=O)N[C@@H](Cc2c[nH]cn2)C(=O)N[C@@H](CC(C)C)[C@@H](O)CC(=O)N[C@@H](CC(C)C)C(N)=O)C(C)C)c1 [[^68Ga]Ga-NOTA-mMA-RM26, metal not drawn] (Ac-K(NOTA)[X2][dF]QWAVGH[Sta]L-NH2) in your answer.
4.6

***
Dear colleague, please send me the reported tissue uptake dose at 2 h for CC(=O)N[C@@H](CCCCNC(=O)CN1CCN(CC(=O)O)CCN(CC(=O)O)CC1)C(=O)NCCc1ccccc1CC(=O)N[C@H](Cc1ccccc1)C(=O)N[C@@H](CCC(N)=O)C(=O)N[C@@H](Cc1c[nH]c2ccccc12)C(=O)N[C@@H](C)C(=O)N[C@H](C(=O)NCC(=O)N[C@@H](Cc1c[nH]cn1)C(=O)N[C@@H](CC(C)C)[C@@H](O)CC(=O)N[C@@H](CC(C)C)C(N)=O)C(C)C [[^68Ga]Ga-NOTA-oET-RM26, metal not drawn] (Ac-K(NOTA)[X1][dF]QWAVGH[Sta]L-NH2) when you can.
3.1
